measurement_description: Conversion efficiency / PK profile after IV dose in monkeys
Assay type: in vivo
condition_summary: Monkey, plasma, parent compound IV 1 mg/kg; read-out: Parent compound AUCinf
measurement_type: AUC(0-inf) (ng·h/mL)
Numbers only, in ng·h/mL.

Prompt: Supply recorded AUC(0-inf) for CCc1[nH]c(C(=O)N[C@@H]2CCN(c3nnc(C(C)(C)O)s3)C[C@@H]2OC)nc1Cl [Parent compound of Compound No. 1] here.
Response: 6250

----------
measurement_description: Solubility of parent compounds and prodrugs in phosphate buffer
Type: physicochemical
condition_summary: aqueous buffer, thermodynamic from solid; parent compound, phosphate buffer, 25° C., more than 4 weeks, pH 7.0
Give measured solubility for each item. Keep answers brief.
One number for each entry, in µg/mL.

CCc1[nH]c(C(=O)N[C@@H]2CCN(c3nnc(C(C)O)s3)C[C@@H]2OC)nc1Cl (stereo partly shown) [Compound D]
752

// for each compound below, give its solubility
1. CCc1[nH]c(C(=O)N[C@@H]2CCN(c3nnc([C@@H](O)CO)s3)C[C@@H]2OC)nc1Cl [Compound B]
2. CCc1[nH]c(C(=O)N[C@@H]2CCN(c3nnc([C@H](O)CO)s3)C[C@@H]2OC)nc1Cl [Compound C]
3. CCc1[nH]c(C(=O)N[C@@H]2CCN(c3nnc([C@](C)(O)CO)s3)C[C@@H]2OC)nc1Cl [Compound A]

Response:
1: 380; 2: 2440; 3: 775

Reference source for all entries: patent US10752647B2
